Measured on: second (BD2: amino acids E352-E168) bromodomain of BRD4 (Homo sapiens, UniProt O60885)
Construct: protocol
Assay text: TR-FRET bromodomain binding assay, BRD4 BD2
Cond: TR-FRET assay protocol (A-G, compound concentration range); Ki calculated from IC50, probe Kd and probe concentration; read-out: TR-FRET Binding Ki: BRD4 (BDII_E352-M457)
Metric name: Ki (µM)
# number only, unit µM dropped from output

{"Compound": "CCOc1cc(=O)n(C)cc1-c1cc(NS(=O)(=O)c2ccccc2)ccc1Oc1ccc(F)cc1F [Example 344]", "Reading unit": "µM", "Ki": 0.00507}
{"Compound": "COc1cc(-c2cc(=O)n(C)nc2-c2ccccc2Oc2ccccc2)ccc1F [Example 199]", "Reading unit": "µM", "Ki": 5.66}

Request: API: value(readout=Ki, system=second (BD2: amino acids E352-E168) bromodomain of BRD4 (Homo sapiens, UniProt O60885)) for record CCOc1cc(=O)n(C)cc1-c1cc(NCC(C)(C)C)ccc1Oc1ccc(F)cc1F [Example 305]
Result: 0.271

Request: Then COc1cc(=O)n(C)nc1-c1ccccc1Oc1ccc(C#N)cc1 [Example 32] ?
Result: 12.2

Request: Let us now turn to CN1CCN(c2cc(=O)n(C)nc2-c2ccccc2Oc2ccccc2)CC1=O [Example 51]
Result: 6.6

Request: Now give it for CCC(O)c1ccc(-c2cc(=O)n(C)nc2-c2ccccc2Oc2ccccc2)cc1 (stereo not shown) [Example 75] too.
Result: 0.195

Request: Field entry: Cn1nc(-c2ccccc2Oc2ccccc2)c(-c2ccc(CNc3ccccc3)cc2)cc1=O [Example 187]
Result: 2.25

Request: Same thing, different compound: Cn1nc(-c2ccccc2Oc2ccccc2)c(-c2ccc(CN3CCCCC3)cc2)cc1=O [Example 67]
Result: 0.0925

Request: # repeat for COc1cc(=O)n(C)nc1-c1ccccc1OCC1CCCC1 [Example 46]
Result: 18

Request: Here is the next compound: Cn1cc(-c2cc(NS(C)(=O)=O)ccc2Oc2ccc(F)cc2F)c(Cl)cc1=O [Example 269]
Result: 0.204

Request: And Cn1cc(-c2cc(NS(C)(=O)=O)ccc2Oc2cccnc2)ccc1=O [Example 234] ?
Result: 0.216

Request: // query: Cn1nc(-c2ccccc2Oc2ccccc2)c(-c2ccc(N3CCNCC3)nc2)cc1=O [Example 151]
Result: 0.258

----------
Measured on: first (BD1: amino acids K57-E168) bromodomain of BRD4 (Homo sapiens, UniProt O60885)
Construct: His-tagged first (BD1: amino acids K57-E168)
Assay text: TR-FRET bromodomain binding assay, BRD4 BD1
Cond: TR-FRET assay protocol (D, E or G) per compound; Ki calculated from IC50, probe Kd and probe concentration; read-out: TR-FRET Binding Ki: BRD4 (BDI_K57-E168)
Metric name: Ki (nM)
Kindly answer with a numeric value in nM, unit omitted.

{"Molecule": "CCOc1cc(=O)n(C)cc1-c1cc(NS(=O)(=O)c2ccc(C(C)(C)C)cc2)ccc1Oc1ccc(F)cc1F [Example 416]", "Ki [nM]": 493}

Request: Dear colleague, I am looking for the recorded Ki of the following molecule: CCOc1cc(=O)n(C)cc1-c1cc(NS(=O)(=O)CC)ccc1Oc1ccc(OC(F)(F)F)cc1 [Example 387]
Result: 69.1

Request: Please give the result for CCOc1cc(=O)n(C)cc1-c1cc(C(C)(C)S(=O)(=O)CC)ccc1Oc1ccc(F)cc1F [Example 380] too.
Result: 14.3

----------
Measured on: first (BD1: amino acids K57-E168) bromodomain of BRD4 (Homo sapiens, UniProt O60885)
Construct: His-tagged first (BD1: amino acids K57-E168)
Assay text: TR-FRET bromodomain binding assay, BRD4 BD1
Cond: TR-FRET assay protocol (D, E or G) per compound; Ki calculated from IC50, probe Kd and probe concentration; read-out: TR-FRET Binding Ki: BRD4 (BDI_K57-E168)
Metric name: Ki
Mention the unit after the number when you answer.

Example entries begin here.
{"Mol smiles": "CCOc1cc(=O)n(C)cc1-c1cc(NC(=O)c2cc(Cl)ccc2Cl)ccc1Oc1ccc(F)cc1F", "Ki": "0.0289 µM"}
{"Mol smiles": "CCOc1cc(=O)n(C)cc1-c1cc(NS(=O)(=O)CC)ccc1Oc1ccc(Cl)cc1F", "Ki": "0.0147 µM"}
{"Mol smiles": "CCOc1cc(=O)n(C)cc1-c1cc(NC(=O)c2ccc(C(C)C)cc2)ccc1Oc1ccc(F)cc1F", "Ki": "0.181 µM"}
{"Mol smiles": "CCOc1cc(=O)n(C)cc1-c1cc(NS(=O)(=O)CC)ccc1OCCC1CC1", "Ki": "0.0432 µM"}
{"Mol smiles": "CCOc1cc(=O)n(C)cc1-c1cc(S(=O)(=O)CC)ccc1Oc1ccc(OC(F)(F)F)cc1", "Ki": "0.0534 µM"}

Consider now this further molecule.
Request: Param item = "CCOc1cc(=O)n(C)cc1-c1cc(NS(=O)(=O)CC)ccc1OCC1CC1" ; retrieve measured Ki.
Result: 0.0334 µM

----------
Measured on: second (BD2: amino acids E352-E168) bromodomain of BRD4 (Homo sapiens)
Construct: protocol
Assay text: TR-FRET bromodomain binding assay, BRD4 BD2
Cond: TR-FRET assay protocol (A-G, compound concentration range); Ki calculated from IC50, probe Kd and probe concentration; read-out: TR-FRET Binding Ki: BRD4 (BDII_E352-M457)
Metric name: Ki (nM)
Report as a plain number; the unit nM is understood.

{"Mol smiles": "CCS(=O)(=O)Nc1ccc(Oc2ccc(F)cc2F)c(-c2cn(C)c(=O)cc2-c2ccccc2O)c1", "Reading unit": "nM", "Result value": 551}
{"Mol smiles": "COC(=O)/C=C/c1cc(=O)n(C)nc1-c1ccccc1Oc1ccccc1", "Reading unit": "nM", "Result value": 308}
{"Mol smiles": "CN(C(=O)c1cccc(-c2cc(=O)n(C)nc2-c2ccccc2Oc2ccccc2)c1)C1CCCCC1", "Reading unit": "nM", "Result value": 19700}
{"Mol smiles": "Cn1nc(-c2ccccc2Oc2ccc(S(C)(=O)=O)cc2)ccc1=O", "Reading unit": "nM", "Result value": 17800}
{"Mol smiles": "CCOc1cc(=O)n(C)cc1-c1cc(CS(C)(=O)=O)ccc1Oc1ccc(F)cc1F", "Reading unit": "nM", "Result value": 39.5}
{"Mol smiles": "CC(=O)Nc1ccc(Oc2ccc(F)cc2F)c(-c2c[nH]c(=O)c(C)c2)c1", "Reading unit": "nM", "Result value": 172}
{"Mol smiles": "Cn1cc(-c2cc(NS(C)(=O)=O)ccc2Oc2ccccc2)ccc1=O", "Reading unit": "nM", "Result value": 113}
{"Mol smiles": "Cc1cc(-c2cc(NS(C)(=O)=O)ccc2Oc2ccc(F)cc2F)c[nH]c1=O", "Reading unit": "nM", "Result value": 121}
{"Mol smiles": "Cn1nc(-c2ccccc2Oc2ccccc2)c(-c2ccc(C(=O)NC(C)(C)C)cc2)cc1=O", "Reading unit": "nM", "Result value": 993}
{"Mol smiles": "COc1cc(=O)n(C)nc1-c1cc(NS(=O)(=O)CC(F)(F)F)ccc1Oc1ccccc1", "Reading unit": "nM", "Result value": 12.5}

Request: So what does the record say about Ki for "CCN(CC)C(=O)c1cccc(-c2cc(=O)n(C)nc2-c2ccccc2Oc2ccccc2)c1" ?
Result: 10200

Request: Another compound to look at: "COc1cc(=O)n(C)nc1-c1ccccc1Oc1cccc(F)c1"
Result: 4430

Request: Thanks! And "Cn1nc(-c2ccccc2Oc2ccccc2)c(-c2cccc(C(=O)N3CCOCC3)c2)cc1=O" ?
Result: 2490

Request: One more compound: "CCS(=O)(=O)c1ccc(Oc2ccccc2C#CCO)c(-c2cn(C)c(=O)cc2Cl)c1"
Result: 229

Request: Now this one: "C=CC#Cc1ccccc1Oc1ccc(S(=O)(=O)CC)cc1-c1cn(C)c(=O)cc1O"
Result: 55.2

----------
Measured on: second (BD2: amino acids E352-E168) bromodomain of BRD4 (Homo sapiens)
Construct: protocol
Assay text: TR-FRET bromodomain binding assay, BRD4 BD2
Cond: TR-FRET assay protocol (A-G, compound concentration range); Ki calculated from IC50, probe Kd and probe concentration; read-out: TR-FRET Binding Ki: BRD4 (BDII_E352-M457)
Metric name: pKi
// field semantics: pKi = negative decimal log of concentration (mol/L)

Before answering, review these 5 worked examples.
{"Molecule": "CCS(=O)(=O)Nc1ccc(Oc2ccc(F)cc2F)c(-c2cn(C)c(=O)cc2OCCN2CCOCC2)c1 [Example 286]", "pKi": 7.12}
{"Molecule": "CN(C)CCCNC(=O)c1ccc(-c2cc(=O)n(C)nc2-c2ccccc2Oc2ccccc2)cc1 [Example 150]", "pKi": 6.39}
{"Molecule": "COc1cc(=O)n(C)nc1-c1cccc(NS(C)(=O)=O)c1 [Example 19]", "pKi": 5.07}
{"Molecule": "CCS(=O)(=O)Nc1ccc(Oc2ccc(F)cc2F)c(-c2cn(C)c(=O)cc2OC2CCN(C(=O)OC(C)(C)C)CC2)c1 [Example 319]", "pKi": 6.98}
{"Molecule": "Cn1nc(-c2ccccc2Oc2ccccc2)c(-c2cccc(CN3CCOCC3)c2)cc1=O [Example 141]", "pKi": 6.53}

Request: Which pKi reading was recorded for the molecule Cc1ccc(-c2cc(=O)n(C)nc2-c2ccccc2Oc2ccccc2)cn1 [Example 196] ?
Result: 6.17

Request: Field entry: COc1ccc(Oc2ccccc2-c2nn(C)c(=O)cc2OC)cc1 [Example 35]
Result: 5.97

Request: Same read-out for Cn1nc(-c2ccccc2Oc2ccccc2)c(-c2cccc(CC#N)c2)cc1=O [Example 193] ?
Result: 6.00

Request: Moving on to the next molecule: COc1cc(=O)n(C)cc1-c1ccccc1Oc1ccccc1 [Example 258]
Result: 6.42

Request: What do we get for CNC(=O)c1cc(=O)n(C)cc1-c1cc(NS(C)(=O)=O)ccc1Oc1ccc(F)cc1F [Example 276] ?
Result: 6.24

Request: // next record CCOc1cc(=O)n(C)cc1-c1cc(NS(=O)(=O)Cc2ccccc2F)ccc1Oc1ccc(F)cc1F [Example 351]
Result: 7.53

Request: Item: CC(=O)NCCc1ccc(-c2cc(=O)n(C)nc2-c2ccccc2Oc2ccccc2)cc1 [Example 100]
Result: 7.14
